Reference for the values: patent US20060257938A1

- Measurement Protocol: Probe fluorescence ratio response to arachidonic acid relative to ADIFAB2
- Format: binding
- Assay Conditions: Table 5; Arachidonic acid
Metric Name: ΔR/DRAΔ2 AA
Output spec: single numeric token, no unit.

Fill blank: measured ΔR/DRAΔ2 AA of the molecule L2P23G7: FABP probe, substitutions M18V G31F F55L vs SEQ ID NO: 2 (protein, listed as Rattus norvegicus, PEPTIDE (1)...(131) wild-type rat intestinal fatty acid binding protein) AFDGTWKVDRNENYEKFVEKMGINVVKRKLFAHDNLKLTITQEGNKFTVKESSNLRNIDVVFELGVDFAYSLADGTELTGTWTMEGNKLVGKFKRVDNGKELIAVREISGNELIQTYTYEGVEAKRIFKKE is ____.
0.9

Fill blank: measured ΔR/DRAΔ2 AA of the molecule L2P22G6: FABP probe, substitutions M18I G31Y A73G vs SEQ ID NO: 2 (protein, listed as Rattus norvegicus, PEPTIDE (1)...(131) wild-type rat intestinal fatty acid binding protein) AFDGTWKVDRNENYEKFIEKMGINVVKRKLYAHDNLKLTITQEGNKFTVKESSNFRNIDVVFELGVDFAYSLGDGTELTGTWTMEGNKLVGKFKRVDNGKELIAVREISGNELIQTYTYEGVEAKRIFKKE is ____.
1.8
